FYI, the data here is from patent US20110190280A1.

Target: B-Raf (Homo sapiens)
Sequence (P15056 whole entry): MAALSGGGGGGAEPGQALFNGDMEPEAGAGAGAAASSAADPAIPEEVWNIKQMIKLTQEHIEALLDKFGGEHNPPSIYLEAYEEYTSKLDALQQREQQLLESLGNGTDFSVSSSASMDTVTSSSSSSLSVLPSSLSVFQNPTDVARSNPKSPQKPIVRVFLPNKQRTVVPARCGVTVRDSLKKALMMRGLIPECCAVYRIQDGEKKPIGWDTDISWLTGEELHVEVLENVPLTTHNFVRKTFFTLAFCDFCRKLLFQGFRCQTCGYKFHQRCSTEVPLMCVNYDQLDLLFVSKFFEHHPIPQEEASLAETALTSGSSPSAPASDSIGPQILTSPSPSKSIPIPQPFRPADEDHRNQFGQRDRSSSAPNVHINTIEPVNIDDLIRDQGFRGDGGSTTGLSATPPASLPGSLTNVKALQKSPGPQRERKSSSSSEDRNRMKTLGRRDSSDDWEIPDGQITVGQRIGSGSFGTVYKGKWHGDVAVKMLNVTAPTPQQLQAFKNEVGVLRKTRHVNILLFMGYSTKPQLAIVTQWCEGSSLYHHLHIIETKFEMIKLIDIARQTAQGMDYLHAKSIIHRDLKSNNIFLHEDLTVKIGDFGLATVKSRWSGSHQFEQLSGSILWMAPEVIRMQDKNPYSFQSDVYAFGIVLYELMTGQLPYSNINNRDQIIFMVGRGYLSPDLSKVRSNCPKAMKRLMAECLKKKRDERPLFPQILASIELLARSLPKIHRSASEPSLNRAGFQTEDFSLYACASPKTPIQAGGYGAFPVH
Test: B-Raf Accelerated MEK ATPase assay (BRAMA)
Assay type: biochemical
Details: BRAMA enzyme assay; class by pIC50; read-out: B-Raf Activity
Description: Compounds of the present invention were tested for B-Raf […] inhibitory activity in a B-Raf Accelerated MEK ATPase assay (BRAMA). The BRAMA assay is a high sensitivity assay which measures an intrinsic MEK-mediated ATP hydrolysis uncoupled from downstream ERK phosphorylation by coupling the formation of ADP to NADH oxidation through the enzymes pyruvate kinase and lactate dehydrogenase. […]
Where a name gives a salt, the structure may show the parent alone.
Please respond with reported IC50 for every item in the list.

MOLECULE: COc1cc(C)cc(-c2nc(C(C)C)sc2-c2ccnc(Nc3ccc(N4CCOCC4)nc3)n2)c1 [Example 61]
OBSERVED_PROPERTY: IC50
MEAS_VALUE: < 100 nM
//
MOLECULE: CCNc1nc(-c2cc(OC)cc(OC)c2)c(-c2ccnc(Nc3ccc(N4CCN(CCS(C)(=O)=O)CC4)c(F)c3)n2)o1 [Example 116]
OBSERVED_PROPERTY: IC50
MEAS_VALUE: < 100 nM
//
MOLECULE: CCNc1nc(-c2cc(C)cc(OC)c2)c(-c2ccnc(Nc3cc(OC)c(OC4CCN(CCS(C)(=O)=O)CC4)c(OC)c3)n2)o1 [Example 131]
OBSERVED_PROPERTY: IC50
MEAS_VALUE: < 100 nM

Hi there! I need IC50 for each item below, if you can.
1. CCNc1nc(-c2cccc(OC)c2)c(-c2ccnc(Nc3ccc(OCCN(C)C)c(C)c3)n2)s1 [Example 77]
2. CCNc1nc(-c2ccc(C)c(OC)c2)c(-c2ccnc(Nc3ccc(OCCN4CCCC4)c(C#N)c3)n2)s1 [Example 50]

Output line:
["< 100 nM", "< 100 nM"]

Report IC50 for every entry below.
1. CCc1nc(-c2cc(O)cc(OC)c2)c(-c2ccnc(Nc3ccc(OC4CCN(CCS(C)(=O)=O)CC4)c(F)c3)n2)s1 [Example 74, trifluoroacetic acid salt]
2. CCNc1nc(-c2cc(OC)cc(OC)c2)c(-c2ccnc(Nc3ccc(OC4CCN(CCS(C)(=O)=O)CC4)c(OC)c3)n2)o1 [Example 95]
3. CCNc1nc(-c2cc(C)cc(OC)c2)c(-c2ccnc(Nc3ccc(N4CCN(CCS(C)(=O)=O)CC4)c(F)c3)n2)s1 [Example 27]
4. CCNc1nc(-c2cccc(Cl)c2)c(-c2ccnc(Nc3ccc(OCCN(C)C)c(Cl)c3)n2)s1 [Example 46]
5. CCNc1nc(-c2cc(C)cc(OC)c2)c(-c2ccnc(Nc3ccc(N4CCN5CCCCC5C4)c(F)c3)n2)o1 (stereo not shown) [Example 132]
6. CCNc1nc(-c2cc(OC)cc(OC)c2)c(-c2ccnc(Nc3ccc(OC4CCN(CCO)CC4)c(F)c3)n2)o1 [Example 124]

Output line:
1: < 100 nM; 2: < 100 nM; 3: < 100 nM; 4: < 100 nM; 5: < 100 nM; 6: < 100 nM

Report IC50 for each item below.
1. COc1cc(OC)cc(-c2nc(N(C)C)sc2-c2ccnc(Nc3ccc(OC4CCN(CCS(C)(=O)=O)CC4)c(F)c3)n2)c1 [Example 24]
2. CCc1nc(-c2ccc(CO)c(OC)c2)c(-c2ccnc(Nc3ccc(N4CCN(C(C)=O)CC4)nc3)n2)s1 [Example 55]
3. CCNc1nc(-c2cc(C)cc(OC)c2)c(-c2ccnc(Nc3ccc(N4CCN(CCF)CC4)c(F)c3)n2)s1 [Example 29]

Output line:
["< 100 nM", "< 100 nM", "< 100 nM"]

Below are 6 molecules. Give each one its IC50.
1. CCNc1nc(-c2cc(C)cc(OCC)c2)c(-c2ccnc(Nc3ccc(N4CCN(C)CC4)c(F)c3)n2)s1 [Example 39]
2. CCNc1nc(-c2cc(OC)cc(OC)c2)c(-c2ccnc(Nc3ccc(N4CCN5CCCCC5C4)c(F)c3)n2)o1 (stereo not shown) [Example 134]
3. COc1cc(-c2nc(NC3CC3)sc2-c2ccnc(Nc3ccc(OCCN4CCCC4)c(Cl)c3)n2)ccc1Cl [Example 51]
4. CCNc1nc(-c2cc(OC)cc(OC)c2)c(-c2ccnc(Nc3ccc(N4CCN(CCO)CC4)nc3)n2)o1 [Example 108]
5. CCNc1nc(-c2cc(OC)cc(OC)c2)c(-c2ccnc(Nc3ccc(N4CCN(CC)CC4)cc3)n2)s1 [Example 5, trifluoroacetate]
6. CCNc1nc(-c2cc(C)cc(OC)c2)c(-c2ccnc(Nc3ccc(N4CCN(CCS(C)(=O)=O)CC4)c(F)c3)n2)o1 [Example 127]

Output line:
< 100 nM
< 100 nM
< 100 nM
< 100 nM
< 100 nM
< 100 nM

Provide IC50 values for the following items, in order.
1. CCNc1nc(-c2cc(OC)cc(OC)c2)c(-c2ccnc(Nc3ccc(OC4CCN(CCS(C)(=O)=O)CC4)c(F)c3)n2)s1 [Example 10]
2. CCNc1nc(-c2cc(OC)cc(OC)c2)c(-c2ccnc(Nc3ccc(N4CCOCC4)c(F)c3)n2)s1 [Example 7]
3. CCNc1nc(-c2cc(OC)cc(OC)c2)c(-c2ccnc(Nc3ccc(OCCN(C)C)c(C)c3)n2)s1 [Example 106]
4. COc1cccc(-c2nc(CO)sc2-c2ccnc(Nc3ccc(OCCN4CCCC4)c(F)c3)n2)c1 [Example 60]
5. CCNc1nc(-c2cc(C)cc(OC)c2)c(-c2ccnc(Nc3ccc4c(c3)CCN4C(C)=O)n2)s1 [Example 30]
6. CCNc1nc(-c2cc(OC)cc(OC)c2)c(-c2ccnc(Nc3ccc(OC4CCN(CCS(C)(=O)=O)CC4)c(C)c3)n2)o1 [Example 87]

Output line:
1. < 100 nM
2. < 100 nM
3. < 100 nM
4. < 100 nM
5. < 100 nM
6. < 100 nM

For each of the items listed, what is its IC50?
1. CCNc1nc(-c2cc(C)cc(OC)c2)c(-c2ccnc(Nc3ccc(N4CCOCC4)nc3)n2)s1 [Example 35]
2. Nc1cccc(-c2nc(N3CCCC3)sc2-c2ccnc(Nc3ccc(NCCN4CCCC4)c(F)c3)n2)c1 [Example 109]

Output line:
1: < 100 nM; 2: < 100 nM

----------
So I've got a bunch of molecules here, and I need their pIC50 values.
Molecular target: UniProt:P15056
Assay: B-Raf Accelerated MEK ATPase assay (BRAMA)
Format: biochemical
Conditions: BRAMA enzyme assay; class by pIC50; read-out: B-Raf Activity
Experimental: Compounds of the present invention were tested for B-Raf […] inhibitory activity in a B-Raf Accelerated MEK ATPase assay (BRAMA). The BRAMA assay is a high sensitivity assay which measures an intrinsic MEK-mediated ATP hydrolysis uncoupled from downstream ERK phosphorylation by coupling the formation of ADP to NADH oxidation through the enzymes pyruvate kinase and lactate dehydrogenase. […]
pIC50: −log10 of the molar value.

COMPOUND_STRUCTURE: CCNc1nc(-c2ccnc(OC)c2)c(-c2ccnc(Nc3ccc(N4CCN(C)CC4)c(F)c3)n2)s1
pIC50: > 7.00
//
COMPOUND_STRUCTURE: CCNc1nc(-c2cc(C)cc(OC)c2)c(-c2ccnc(Nc3ccc4c(c3)CS(=O)(=O)C4)n2)s1
pIC50: > 7.00

Please state, for each entry, its recorded pIC50.
1. CCNc1nc(-c2cccc(O)c2)c(-c2ccnc(Nc3ccc(OCCN4CCCC4)c(Cl)c3)n2)s1
2. CCNc1nc(-c2cc(OC)cc(OC)c2)c(-c2ccnc(Nc3ccc(O[C@H]4CCN(CCS(C)(=O)=O)C4)nc3)n2)s1
3. CCNc1nc(-c2cc(C)cc(OC)c2)c(-c2ccnc(Nc3ccc(OCCOC)c(F)c3)n2)s1
4. COCCN1CCN(c2ccc(Nc3nccc(-c4sc(NC5CC5)nc4-c4cc(OC)cc(OC)c4)n3)cn2)CC1

Output line:
1. > 7.00
2. > 7.00
3. > 7.00
4. > 7.00

Record pIC50 per entry; entries follow.
1. CCNc1nc(-c2cc(C)cc(OC)c2)c(-c2ccnc(Nc3ccc(N4CC[C@@H](F)C4)nc3)n2)o1
2. CCc1nc(-c2cc(C)cc(CO)c2)c(-c2ccnc(Nc3ccc(N4CCN(S(C)(=O)=O)CC4)nc3)n2)s1
3. CCNc1nc(-c2ccc3c(c2)OCO3)c(-c2ccnc(Nc3ccc(OC4CCN(CCS(C)(=O)=O)CC4)c(F)c3)n2)s1
4. COc1cc(OC)cc(-c2nc(N)oc2-c2ccnc(Nc3ccc(OC4CCN(CCS(C)(=O)=O)CC4)c(F)c3)n2)c1
5. CCNc1nc(-c2cc(OC)cc(OC)c2)c(-c2ccnc(Nc3ccc(N4CCOCC4)nc3)n2)o1
6. CCNc1nc(-c2cc(OC)cc(OC)c2)c(-c2ccnc(Nc3ccc(N4CCS(=O)(=O)CC4)c(F)c3)n2)s1
7. COc1cc(OC)cc(-c2nc(NC3CC3)sc2-c2ccnc(Nc3ccc(O[C@@H]4CCN(CCF)C4)nc3)n2)c1
8. COc1cc(OC)cc(-c2nc(C)oc2-c2ccnc(Nc3ccc(N4CCN(C)CC4)c(F)c3)n2)c1

Output line:
1. > 7.00
2. > 7.00
3. > 7.00
4. > 7.00
5. > 7.00
6. > 7.00
7. > 7.00
8. > 7.00

Input line: Give the measured pIC50 for CCNc1nc(-c2cccc(N(C)C)c2)c(-c2ccnc(Nc3ccc(OCCN4CCCC4)c(Cl)c3)n2)s1
Output line: > 7.00
